target: α2AAR (α2A-adrenergic receptor) (Homo sapiens, UniProt P08913); construct: expressed in transfected cells; host or cells: HEK293; assay: α2AAR FLIPR assay (agonist activity); assay type: cell-based; conditions: FLIPR, α2AAR cell line hosted in HEK293 cells; read-out: α2A agonist activity (EC50)
Sequence (P08913 whole entry, species assumed): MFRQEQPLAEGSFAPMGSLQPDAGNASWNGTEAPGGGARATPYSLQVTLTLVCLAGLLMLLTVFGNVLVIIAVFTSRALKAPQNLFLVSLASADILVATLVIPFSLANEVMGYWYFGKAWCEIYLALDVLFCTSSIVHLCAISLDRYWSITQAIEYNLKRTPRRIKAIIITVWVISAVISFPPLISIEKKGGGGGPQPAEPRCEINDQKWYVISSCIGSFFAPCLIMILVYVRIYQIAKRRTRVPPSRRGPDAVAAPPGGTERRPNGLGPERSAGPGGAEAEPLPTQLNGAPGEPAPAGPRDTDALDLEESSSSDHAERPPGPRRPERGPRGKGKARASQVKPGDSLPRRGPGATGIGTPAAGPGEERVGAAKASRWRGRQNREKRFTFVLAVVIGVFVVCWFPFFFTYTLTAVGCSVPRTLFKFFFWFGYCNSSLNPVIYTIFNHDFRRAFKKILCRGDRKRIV
pEC50: −log10 of the molar value.
Item-by-item account of pEC50

Recorded pEC50 for Cc1cccc(C(Cc2ccc(S(N)(=O)=O)c(F)c2)c2c[nH]cn2)c1C (stereo not drawn) , please?
> 8.00

Recorded pEC50 for Cc1cccc(C(c2cccc(S(N)(=O)=O)c2)c2c[nH]cn2)c1C (stereo not drawn) , please?
7.30 to 8.00

Recorded pEC50 for Cc1cccc(C(Cc2ccc(CC(=O)O)cc2)c2c[nH]cn2)c1C (stereo not drawn) , please?
6.60 to 7.30

Recorded pEC50 for Cc1cccc(C(c2cccc(C(=O)O)c2)c2c[nH]cn2)c1C (stereo not drawn) , please?
6.00 to 6.60

Recorded pEC50 for Cc1cccc(C(c2cccc(C(=O)CCC#N)c2)c2c[nH]cn2)c1C (stereo not drawn) , please?
6.60 to 7.30

Recorded pEC50 for Cc1cccc(C(Cc2ccc(C(=O)NCC(=O)O)cc2)c2c[nH]cn2)c1C (stereo not drawn) , please?
7.30 to 8.00

Recorded pEC50 for Cc1cccc(C(c2cccc(-c3cnnn3C3CCOCC3)c2)c2c[nH]cn2)c1C (stereo not drawn) , please?
> 8.00

Recorded pEC50 for COc1ccc(CC(c2c[nH]cn2)c2cccc(C)c2C)cc1OC (stereo not drawn) , please?
> 8.00

Recorded pEC50 for Cc1cccc(C(c2cccc(NC(=O)CC3CCCCO3)c2)c2c[nH]cn2)c1C (stereo not drawn) , please?
7.30 to 8.00
